Parameter: IC50. Scope: all listed entries.
- measurementTarget: TYK2-JH2 (aa 575-869, in-house) protein (Homo sapiens, UniProt P29597)
- Construct: TYK2-JH2 (aa 575-869, in-house) protein; made in house
- Sequence (P29597 575-869): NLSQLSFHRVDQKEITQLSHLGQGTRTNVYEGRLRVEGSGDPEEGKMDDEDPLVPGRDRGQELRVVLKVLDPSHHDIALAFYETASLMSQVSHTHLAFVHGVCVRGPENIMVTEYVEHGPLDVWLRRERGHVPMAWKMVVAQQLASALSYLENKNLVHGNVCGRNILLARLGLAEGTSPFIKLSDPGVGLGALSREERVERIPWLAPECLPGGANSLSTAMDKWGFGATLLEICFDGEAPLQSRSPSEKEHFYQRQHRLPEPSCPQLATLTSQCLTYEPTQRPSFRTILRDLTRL
- experimentalProtocol: TYK2-JH2 biochemical assay (HTRF probe displacement)
- Format: binding
- conditionDetails: Biochemical assay; read-out: TYK2-JH2 IC50
Response body: numeric value in nM, unit text excluded.

Worked set:
compound | unitSymbol | IC50
CC(=O)Nc1cc(Nc2cccc(S(C)(=O)=O)n2)c(-c2c[nH]cn2)cn1 [Example A3] | nM | 0.035
CC(=O)Nc1cc(Nc2cccc(S(C)(=O)=O)c2)c(-c2ccc(N3CCOCC3=O)cn2)cn1 [Example G1] | nM | 0.026
CCn1ccc(-c2cnc(NC(C)=O)cc2Nc2cc(COC)cc(S(C)(=O)=O)c2)n1 [Example M12] | nM | 0.03
CC(=O)Nc1cc(Nc2cccc(S(C)(=O)=O)n2)c(-c2ccn(C)n2)cn1 [Example J11] | nM | 0.017
CCOc1cc(Nc2cc(NC(C)=O)ncc2-c2ccn(C)n2)nc(S(C)(=O)=O)c1 [Example J43] | nM | 0.025
CC(=O)Nc1cc(Nc2cc(C3COCCO3)cc(S(C)(=O)=O)n2)c(-c2ccc3c(n2)OCC(C)(C)O3)cn1 (racemic) [Example Q50] | nM | 0.019

Now look at this entry.
Sample COc1cc(Nc2cc(NC(C)=O)ncc2-c2ccc3c(n2)OCC(C)(C)O3)nc(S(C)(=O)=O)c1 [Example Q25] — what was its IC50?
0.026
